Value source: ChEMBL document CHEMBL5113485

Biological target: Alpha-1B adrenergic receptor (Homo sapiens)
Sequence (P35368 whole entry): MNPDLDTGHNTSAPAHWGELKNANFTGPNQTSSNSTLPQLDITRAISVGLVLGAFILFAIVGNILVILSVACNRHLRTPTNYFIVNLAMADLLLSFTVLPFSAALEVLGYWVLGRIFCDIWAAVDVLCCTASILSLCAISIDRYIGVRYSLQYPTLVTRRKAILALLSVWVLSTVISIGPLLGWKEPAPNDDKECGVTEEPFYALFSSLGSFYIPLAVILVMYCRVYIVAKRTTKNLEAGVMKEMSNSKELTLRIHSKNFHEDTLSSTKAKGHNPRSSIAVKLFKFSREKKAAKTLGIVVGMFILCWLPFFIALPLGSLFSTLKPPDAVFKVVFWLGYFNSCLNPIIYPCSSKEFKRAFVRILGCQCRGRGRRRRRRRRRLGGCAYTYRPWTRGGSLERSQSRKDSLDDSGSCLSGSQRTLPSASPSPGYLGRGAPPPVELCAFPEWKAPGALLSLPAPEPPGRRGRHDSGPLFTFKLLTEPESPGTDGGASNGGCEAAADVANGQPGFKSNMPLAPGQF
Test: Displacement of [3H]prazosin from recombinant human alpha1B receptor measured after 60 mins by scintillation counting analysis
Field: pKi. Provide a value for each of the molecules that follow.
Give bare numbers, as −log10 of the molar value.

Quick batch: pKi for everything below.
1. [2H]c1c([2H])c([2H])c([C@@H]2C[C@@H](N3CCNC(C)(C)C3)c3cc(Cl)ccc32)c([2H])c1[2H]
2. [2H]c1c([2H])c([2H])c([C@@H]2C[C@@H](N3CCN(C([2H])([2H])[2H])C(C)(C)C3)c3cc(Cl)ccc32)c([2H])c1[2H]

[7.96, 8.54]
